Assign pIC50 to each entry below.
tested on: GDP-loaded KRAS G12D (Homo sapiens, UniProt P01116, G12D)
Sequence (P01116 1-188 isoform P01116-2 G12D): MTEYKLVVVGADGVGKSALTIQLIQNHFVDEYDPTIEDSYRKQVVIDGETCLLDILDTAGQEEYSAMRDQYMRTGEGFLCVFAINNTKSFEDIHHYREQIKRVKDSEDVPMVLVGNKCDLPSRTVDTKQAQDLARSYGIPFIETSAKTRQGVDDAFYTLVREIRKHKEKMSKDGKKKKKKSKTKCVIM
measurement notes: KRAS G12D (GDP) Biochemical Assay (TR-FRET probe displacement)
cond: 0.5 nM enzyme, 2 hours at room temperature
The read-out pIC50 is expressed as -log10 of concentration in moles per litre.

Per the records, this molecule ( Cc1cc(N)nc(-c2nc3c4c(nc(OC[C@@]56CCCN5C[C@H](F)C6)nc4c2F)N2C[C@H]4CC[C@H](N4)[C@H]2CCC3)c1C(F)(F)F ) has pIC50 equal to 9.15

Per the records, this molecule ( Cc1cc(N)nc(-c2nc3c4c(nc(OC[C@@]56CCCN5C[C@H](F)C6)nc4c2F)N2C[C@H]4CC[C@H](N4)[C@@H]2CC3)c1C(F)(F)F ) has pIC50 equal to 7.21

Per the records, this molecule ( Cc1cc(N)nc(-c2c(F)c3c4c(nc(OC[C@@]56CCCN5C[C@H](F)C6)nc4c2F)N2C[C@H]4CC[C@H](N4)[C@H]2CC3)c1C(F)(F)F (single isomer, unassigned) [Example 21] ) has pIC50 equal to 8.70

Per the records, this molecule ( N#Cc1c(N)sc2cccc(-c3nc4c5c(nc(OC[C@@]67CCCN6C[C@H](F)C7)nc5c3F)N3C[C@H]5CC[C@H](N5)[C@H]3CCC4)c12 ) has pIC50 equal to 9.77

Per the records, this molecule ( C[C@H]1Cc2c(Cl)c(-c3ccc(F)c4sc(N)c(C#N)c34)c(F)c3nc(OC[C@@]45CCCN4C[C@H](F)C5)nc(c23)N2C[C@H]3CC[C@H](N3)[C@H]12 (atropisomer, axis not shown; (aS)) ) has pIC50 equal to 10.52

----------
tested on: GDP-loaded KRAS G12D (Homo sapiens, UniProt P01116, G12D)
measurement notes: KRAS G12D (GDP) Biochemical Assay (TR-FRET probe displacement)
cond: 0.5 nM enzyme, 2 hours at room temperature
Assign IC50 to each entry below.
Use nM as the unit, but write only the number.

Per the records, this molecule ( C[C@H]1Cc2c(F)c(-c3ccc(F)c4sc(N)c(C#N)c34)c(F)c3nc(OC[C@@]45CCCN4C[C@H](F)C5)nc(c23)N2C[C@H]3CC[C@H](N3)[C@H]12 (atropisomer, axis not shown; (aS)) [Example 34] ) has IC50 equal to 0.08

Per the records, this molecule ( Cc1cc(N)nc(-c2c(Cl)c3c4c(nc(OC[C@@]56CCCN5C[C@H](F)C6)nc4c2F)N2C[C@H]4CC[C@H](N4)[C@H]2CCC3)c1C(F)(F)F (single isomer, unassigned) [Example 2] ) has IC50 equal to 8.8

----------
tested on: GDP-loaded KRAS G12D (Homo sapiens, UniProt P01116, G12D)
measurement notes: KRAS G12D (GDP) Biochemical Assay (TR-FRET probe displacement)
cond: 0.5 nM enzyme, 2 hours at room temperature
assay endpoint: IC50 (nM)
Use nM as the unit, but write only the number.

Per the records, this compound ( C[C@H]1Cc2c(Cl)c(-c3cccc4sc(N)c(C#N)c34)c(F)c3nc(OC[C@@]45CCCN4C[C@H](F)C5)nc(c23)N2C[C@H]3CC[C@H](N3)[C@H]12 (atropisomer, axis not shown; (aS)) ) has IC50 equal to 0.06

Per the records, this compound ( Cc1cc(N)nc(-c2cc3c4c(nc(OC[C@@]56CCCN5C[C@H](F)C6)nc4c2F)N2C[C@H]4CC[C@H](N4)[C@H]2CC3)c1C(F)(F)F ) has IC50 equal to 2.5

Per the records, this compound ( N#Cc1c(N)sc2cccc(-c3c(F)c4c5c(nc(OC[C@@]67CCCN6C[C@H](F)C7)nc5c3F)N3C[C@H]5CC[C@H](N5)[C@H]3CC4)c12 ) has IC50 equal to 0.12
